These entries and their values trace back to patent US4575509A.

experiment: physchem; assay type: physicochemical; details: water, m-AMSA base content by HPLC, read-out: aqueous solubility (m-AMSA base content as determined by HPLC)
Counter-ions that a name gives are not always drawn.
endpointName: solubility (mg/mL)
State just the number; it will be interpreted in mg/mL.

What does the record list as solubility for COc1cc(NS(C)(=O)=O)ccc1Nc1c2ccccc2nc2ccccc12 [Example 2, m-AMSA Di DL-Pyroglutamate Salt] ?
13.1

---

assay: physchem; assay type: physicochemical; details: water, found by the present inventors, read-out: aqueous solubility
Structures can show the parent of a compound that is named as a salt.
endpointName: solubility

For the compound shown here, COc1cc(NS(C)(=O)=O)ccc1Nc1c2ccccc2nc2ccccc12 [m-AMSA methanesulfonate salt (1:1), m-AMSA methanesulfonate salt] , give the reported solubility.
~90 µg/mL

---

test: physchem; format: physicochemical; details: water, room temperature, read-out: aqueous solubility
Structures can show the parent of a compound that is named as a salt.
endpointName: solubility

I'd like to know its solubility. The compound in question is COc1cc(NS(C)(=O)=O)ccc1Nc1c2ccccc2nc2ccccc12 [Example 1, m-AMSA Mono DL-Pyroglutamate Salt]
~10000 µg/mL
